Value source: patent US8871753B2

In this section we review reported IC50 values for a set of compounds.
biological target: human JAK3 (a.a. 781-1124) (Homo sapiens); construct: JAK3 (a.a. 781-1124); His tag (N); made in house; host or cells: insect cells (baculovirus); experiment: In vitro JAK kinase assay (HTRF, phosphorylation of a biotinylated peptide), JAK3; assay type: biochemical; conditions: Table D1
Counter-ions that a name gives are not always drawn.

# count of solved cases: 5
Lookup: Dear colleague, I am looking for the recorded IC50 of the following compound: N#Cc1ccccc1N1CCN(C(=O)COc2ccc3cc2CCc2cncc(c2)Nc2ncc(Cl)c(n2)N3)CC1 [Example D235, tris(trifluoroacetate)]
Found: > 400 nM

Lookup: What does the record list as IC50 for N#Cc1ccc(N2CCN(C(=O)COc3ccc4cc3CCc3cncc(c3)Nc3ncc(Cl)c(n3)N4)CC2)nc1 [Example D239, tris(trifluoroacetate)] ?
Found: > 400 nM

Lookup: Return reported IC50; argument: O=C(CC1CCN(c2ccncc2)C1)Nc1ccc2cc1CCc1cncc(c1)Nc1ncc(Cl)c(n1)N2 (stereo not shown) [Example D157, tris(trifluoroacetate)]
Found: > 400 nM

Lookup: Given the entry COC(=O)Cn1c(=O)oc2c3cc(cc21)Nc1nc(ncc1Cl)Nc1cccc(c1)CC3 [Example D183, trifluoroacetate] , report its measured IC50.
Found: 64 nM

Lookup: Returns the measured IC50 for the input compound. Input: O=C(COc1ccc2cc1CCc1cncc(c1)Nc1ncc(Cl)c(n1)N2)N1CCN(c2ccccc2)CC1 [Example D234, tris(trifluoroacetate)]
Found: > 400 nM

Continuing:
Lookup: Which IC50 value is on record for O=C(COc1ccc2cc1CCc1cncc(c1)Nc1ncc(Cl)c(n1)N2)N1CCN(C(=O)c2ccno2)CC1 [Example D260, bis(trifluoroacetate)] ?
Found: > 400 nM

Lookup: Would you mind telling me what IC50 value was observed for O=C(CC1CN(c2nccs2)C1)Nc1ccc2cc1CCc1cncc(c1)Nc1ncc(Cl)c(n1)N2 [Example D152, tris(trifluoroacetate)] ?
Found: > 400 nM

Lookup: Requested read-out: IC50. Entry: CC(=O)N1CCC[C@H](CC(=O)Nc2ccc3cc2CCc2cncc(c2)Nc2ncc(Cl)c(n2)N3)C1 [Example D205, bis(trifluoroacetate)]
Found: 107 nM

Lookup: Param item = O=C(Nc1ccccc1)N1CCC(CCOc2ccc3cc2CCc2cncc(c2)Nc2ncc(Cl)c(n2)N3)CC1 [Example D162, bis(trifluoroacetate)] ; retrieve measured IC50.
Found: > 400 nM

Lookup: Any idea what IC50 was measured for O=C(COc1ccc2cc1CCc1cncc(c1)Nc1ncc(Cl)c(n1)N2)N1CCN(Cc2ccncc2)CC1 [Example D256, tris(trifluoroacetate)] ?
Found: > 400 nM

---

target: human JAK2 (a.a. 828-1132) (Homo sapiens, UniProt O60674); construct: JAK2 (a.a. 828-1132); His tag (N); made in house; host or cells: insect cells (baculovirus); experiment: In vitro JAK kinase assay (HTRF, phosphorylation of a biotinylated peptide), JAK2; type: biochemical; conditions: method AA1 (30 μM ATP) or AA2 (1000 μM ATP), not stated per value
Sequence (O60674 828-1132): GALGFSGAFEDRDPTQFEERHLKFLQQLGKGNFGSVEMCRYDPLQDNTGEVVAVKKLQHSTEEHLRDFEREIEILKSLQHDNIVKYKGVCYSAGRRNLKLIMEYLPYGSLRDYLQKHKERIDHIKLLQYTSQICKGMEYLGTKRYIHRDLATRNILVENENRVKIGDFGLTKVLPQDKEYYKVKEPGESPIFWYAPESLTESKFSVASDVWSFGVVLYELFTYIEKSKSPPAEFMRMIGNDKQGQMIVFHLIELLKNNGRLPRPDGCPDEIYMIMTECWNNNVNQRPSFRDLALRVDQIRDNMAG
Structures can show the parent of a compound that is named as a salt.
PROPERTY NAME: pIC50
pIC50 here is simply -log10 of the concentration when that concentration is written in mol/L.

Field: example entries. Status: answers known.
Lookup: Could you tell me which pIC50 is on file for Clc1cnc2nc1Nc1cccc(c1)CCc1cccc(c1)N2 [Example A2, trifluoroacetate] ?
Found: 8.03

Lookup: Consider the compound shown here: O=C(CC1CCN(S(=O)(=O)c2ccco2)CC1)Nc1ccc2cc1CCc1cncc(c1)Nc1ncc(Cl)c(n1)N2 [Example A201, bis(trifluoroacetate)] What is its recorded pIC50?
Found: 7.00

Lookup: // returns reported pIC50 for input N#Cc1cccc(C(=O)N2CCC(CC(=O)Nc3ccc4cc3CCc3cccc(c3)Nc3ncc(Cl)c(n3)N4)CC2)c1 [Example A187, trifluoroacetate]
Found: 6.88

Lookup: # lookup: pIC50 of Cc1noc(C)c1NC(=O)N1CCC(CC(=O)Nc2ccc3cc2CCc2cncc(c2)Nc2ncc(Cl)c(n2)N3)CC1 [Example A145, bis(trifluoroacetate)]
Found: 7.52

Lookup: # query: pIC50 of entry O=C(CC1CCN(S(=O)(=O)c2cccnc2)CC1)Nc1ccc2cc1CCc1cncc(c1)Nc1ncc(Cl)c(n1)N2 [Example A202, tris(trifluoroacetate)]
Found: 7.85

More entries:
Lookup: What does the record list as pIC50 for CC(C)(C)C(=O)N1CCC(CC(=O)Nc2ccc3cc2CCc2cccc(c2)Nc2ncc(Cl)c(n2)N3)CC1 [Example A88, trifluoroacetate] ?
Found: 7.62

Lookup: Can you share its pIC50? I mean this compound: COc1cc2cc(c1)Nc1nc(ncc1Cl)Nc1cccc(c1)CC2 [Example A21, trifluoroacetate]
Found: 8.21

Lookup: Give the measured pIC50 of CC(C)(C)C(=O)N1CCC(CC(=O)Nc2ccc3cc2CCc2cncc(c2)Nc2ncc(Cl)c(n2)N3)CC1 [Example A112, bis(trifluoroacetate)] .
Found: 7.42

Lookup: Recorded pIC50 for CCS(=O)(=O)N1CCC(CC(=O)Nc2ccc3cc2CCc2cncc(c2)Nc2ncc(Cl)c(n2)N3)CC1 [Example A98, bis(trifluoroacetate)] , please?
Found: 8.57

Lookup: Which value of pIC50 has been reported for CC(=O)N1CCC(CC(=O)Nc2ccc3cc2CCc2cccc(c2)Nc2ncc(Cl)c(n2)N3)CC1 [Example A55, trifluoroacetate] in the records?
Found: 8.62

---

Each entry below lists one item and its recorded IC50 value.
target: human JAK1 (a.a. 837-1142) (Homo sapiens); construct: human JAK1 (a.a. 837-1142); His tag (N); made in house; host or cells: insect cells (baculovirus); experiment: In vitro JAK kinase assay (HTRF, phosphorylation of a biotinylated peptide), JAK1; assay type: biochemical; conditions: Table D1; read-out: JAK1 IC50
Sequence (P23458 849-1154): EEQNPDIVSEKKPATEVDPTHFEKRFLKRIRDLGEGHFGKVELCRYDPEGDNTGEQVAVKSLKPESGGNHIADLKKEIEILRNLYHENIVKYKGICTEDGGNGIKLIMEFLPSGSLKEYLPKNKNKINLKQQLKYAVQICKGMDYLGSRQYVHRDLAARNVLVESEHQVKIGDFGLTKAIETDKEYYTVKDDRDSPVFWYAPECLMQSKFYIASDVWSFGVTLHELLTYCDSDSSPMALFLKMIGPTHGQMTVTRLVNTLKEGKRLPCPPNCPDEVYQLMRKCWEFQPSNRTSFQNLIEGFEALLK
Counter-ions that a name gives are not always drawn.
Only the number, expressed in nM, is required.

Lookup: Any idea what its IC50 is? The compound is O=C(C[C@@H]1CCN(C(=O)c2cc[nH]n2)C1)Nc1ccc2cc1CCc1cncc(c1)Nc1ncc(Cl)c(n1)N2 [Example D134, bis(trifluoroacetate)]
Found: 44

---
Lookup: # get_value(readout='IC50', item= O=C(C[C@@H]1CCN(C(=O)c2nc[nH]n2)C1)Nc1ccc2cc1CCc1cncc(c1)Nc1ncc(Cl)c(n1)N2 [Example D131, bis(trifluoroacetate)] )
Found: 8.6

Lookup: Using the record for O=C(CC1CCN(c2ccccn2)C1)Nc1ccc2cc1CCc1cncc(c1)Nc1ncc(Cl)c(n1)N2 (centres unmarked) [Example D156, tris(trifluoroacetate)] , report its IC50.
Found: 24

Lookup: # query: IC50 of entry O=S1(=O)Cc2cccc(c2)Nc2nc(ncc2Cl)Nc2cccc1c2 [Example D4, trifluoroacetate]
Found: 91

Lookup: Quick one: IC50 for O=C(COc1ccc2cc1CCc1cncc(c1)Nc1ncc(Cl)c(n1)N2)N1CCC(c2nc(-c3cccs3)no2)CC1 [Example D258, bis(trifluoroacetate)] ?
Found: 70

Lookup: Sample CS(=O)(=O)N1CCN(c2cc(-c3cc4cc(c3)Nc3ncc(Cl)c(n3)Nc3cccc(c3)OCC4)ccn2)CC1 [Example D36, bis(trifluoroacetate)] — what was its IC50?
Found: 1.3

Lookup: Bench note: what IC50 did N#Cc1ccccc1S(=O)(=O)N1CCC(CCOc2ccc3cc2CCc2cncc(c2)Nc2ncc(Cl)c(n2)N3)CC1 [Example D163] show?
Found: 190

Lookup: Can you share its IC50? I mean this compound: O=C(Cn1c(=O)oc2c3cc(cc21)Nc1nc(ncc1Cl)Nc1cccc(c1)CC3)Nc1ccccc1 [Example D185, trifluoroacetate]
Found: 108

---

target: human JAK3 (a.a. 781-1124) (Homo sapiens, UniProt P52333); construct: JAK3 (a.a. 781-1124); His tag (N); made in house; host or cells: insect cells (baculovirus); test: In vitro JAK kinase assay (HTRF, phosphorylation of a biotinylated peptide), JAK3; assay type: biochemical; settings: method AA1 (3 μM ATP) or AA2 (1000 μM ATP), not stated per value
Sequence (P52333 781-1124): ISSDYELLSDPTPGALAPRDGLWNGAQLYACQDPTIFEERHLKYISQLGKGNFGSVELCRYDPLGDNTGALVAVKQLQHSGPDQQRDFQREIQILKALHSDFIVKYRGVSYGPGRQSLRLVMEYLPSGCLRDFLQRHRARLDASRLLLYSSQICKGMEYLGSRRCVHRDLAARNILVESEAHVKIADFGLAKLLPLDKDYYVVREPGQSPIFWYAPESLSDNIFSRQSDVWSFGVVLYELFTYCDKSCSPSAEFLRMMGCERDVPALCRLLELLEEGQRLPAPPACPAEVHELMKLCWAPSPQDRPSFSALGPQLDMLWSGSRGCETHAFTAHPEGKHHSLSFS
Structures can show the parent of a compound that is named as a salt.
Overview of recorded IC50 for various compounds

Some compounds with recorded IC50:
Lookup: What IC50 appears in the records for this compound with human JAK3 (a.a. 781-1124) (Homo sapiens, UniProt P52333)? N#Cc1cc(F)c(Cl)nc1N1CCC(CC(=O)Nc2ccc3cc2CCc2cncc(c2)Nc2ncc(Cl)c(n2)N3)CC1 [Example A241, tris(trifluoroacetate)]
Found: > 400 nM

Lookup: Form entry - test system: human JAK3 (a.a. 781-1124) (Homo sapiens, UniProt P52333); read-out: IC50; compound: O=C(CC1CCN(S(=O)(=O)c2cccnc2)CC1)Nc1ccc2cc1CCc1cccc(c1)Nc1ncc(Cl)c(n1)N2 [Example A212, bis(trifluoroacetate)]
Found: > 200 nM

Lookup: Hi! What's the reported IC50 for O=C(CC1CCN(c2ccncc2F)CC1)Nc1ccc2cc1CCc1cncc(c1)Nc1ncc(Cl)c(n1)N2 [Example A243, tris(trifluoroacetate)] on human JAK3 (a.a. 781-1124) (Homo sapiens, UniProt P52333)?
Found: > 400 nM

Lookup: I'm curious: which IC50 was measured for CCNC(=O)N1CCC(CC(=O)Nc2ccc3cc2CCc2cccc(c2)Nc2ncc(Cl)c(n2)N3)CC1 [Example A57, trifluoroacetate] tested on human JAK3 (a.a. 781-1124) (Homo sapiens, UniProt P52333)?
Found: 60 nM

Lookup: API: value(readout=IC50, system=human JAK3 (a.a. 781-1124) (Homo sapiens, UniProt P52333)) for record CC(C)(C)C(=O)N1CCC(CC(=O)Nc2ccc3cc2CCc2cccc(c2)Nc2ncc(Cl)c(n2)N3)CC1 [Example A88, trifluoroacetate]
Found: 86 nM

***
Lookup: Hi! What's the reported IC50 for O=C(CC1CCN(S(=O)(=O)c2ccco2)CC1)Nc1ccc2cc1CCc1cccc(c1)Nc1ncc(Cl)c(n1)N2 [Example A211, trifluoroacetate] on human JAK3 (a.a. 781-1124) (Homo sapiens, UniProt P52333)?
Found: > 200 nM

Lookup: So what IC50 did CN(C)S(=O)(=O)N1CCC(CC(=O)Nc2ccc3cc2CCc2cncc(c2)Nc2ncc(Cl)c(n2)N3)CC1 [Example A96, bis(trifluoroacetate)] get with human JAK3 (a.a. 781-1124) (Homo sapiens, UniProt P52333)?
Found: 80 nM

Lookup: Observed IC50 on human JAK3 (a.a. 781-1124) (Homo sapiens, UniProt P52333) for O=C(CC1CCN(c2ncco2)CC1)Nc1ccc2cc1CCc1cncc(c1)Nc1ncc(Cl)c(n1)N2 [Example A246, tris(trifluoroacetate)] , please.
Found: > 200 nM
